Hey, just so you know, these numbers are from the supplement of paper PMC6555819.

# System: THRa:RXRa (NR concentration 90 nM, RXRa partner concentration 90 nM)
# experiment: PBM binding z-score (relative to random genomic background probes); higher = stronger binding; sequences stand for … in GC…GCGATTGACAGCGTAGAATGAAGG
PBM binding z-score: recorded values
Reply: number alone, nothing else.

polymer_sequence: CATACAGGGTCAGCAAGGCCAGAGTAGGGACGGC
PBM binding z-score: 3.29

Exercise: Report PBM binding z-score for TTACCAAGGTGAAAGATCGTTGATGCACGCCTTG
Solution: 1.42

Exercise: Report PBM binding z-score for TCTTGTAGATCAGCATGTTAAGAAAGCTGGCCAA
Solution: -0.548

Exercise: Report PBM binding z-score for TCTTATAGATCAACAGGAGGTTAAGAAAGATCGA
Solution: 1.05

Exercise: Report PBM binding z-score for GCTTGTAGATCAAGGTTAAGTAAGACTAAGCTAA
Solution: 2.36

Exercise: Report PBM binding z-score for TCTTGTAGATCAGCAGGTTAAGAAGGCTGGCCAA
Solution: 0.192

Exercise: Report PBM binding z-score for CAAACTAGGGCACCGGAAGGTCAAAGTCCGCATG
Solution: 3.25

Exercise: Report PBM binding z-score for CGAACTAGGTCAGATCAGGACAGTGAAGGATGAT
Solution: 4.73

Exercise: Report PBM binding z-score for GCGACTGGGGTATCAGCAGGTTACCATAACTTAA
Solution: 1.82

Exercise: Report PBM binding z-score for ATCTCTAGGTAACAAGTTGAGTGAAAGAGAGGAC
Solution: 1.41
